biological target: Voltage-gated potassium channel subunit beta-2 (Rattus norvegicus); assay: inhibitors of rat Kvbeta2 reductase activity – biochemical, NADPH fluorescence, primary screen (AID 622); settings: recombinant KvBeta, 4-cyanobenzaldehyde reduction, at 10 µM, stronger effect = higher value;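 also: slope of raw intensity against log time taken from 70 to 1610 s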
The source made the active and inactive calls.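 The calls were made as follows: active = fluorescence slope higher than the sample average by over 3 SD (cut at about -0.22 in these data, passing the limit was not always enough); inactive = the rest.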
PROPERTY_LABEL: fluorescence slope

Look over these answered cases.
C(=C\c1ccccc1)/CSc1nnc(-c2ccccn2)n1Cc1ccco1	-0.5 (inactive)
COCCNC(=O)CN1C(=O)CSc2ncccc21	-0.413 (inactive)

Enquiry: fluorescence slope for CCOc1ccc(Oc2nc(Nc3ccc(C)cc3)nc(N(C)C)n2)nn1 ?
Return: -0.491 (inactive)

Enquiry: How about this compound: CCn1nc(CC(=O)Nc2nnc(CC(=O)N3CCCCC3)s2)c2ccccc2c1=O
Return: -0.437 (inactive)

Enquiry: How about this compound: CCCn1c(OC)nc2c1c(=O)n(C)c(=O)n2C
Return: -0.426 (inactive)

Enquiry: How about this compound: CN=C(Nc1cc(C)nn1-c1ccccc1)c1ccccc1
Return: -0.519 (inactive)

Enquiry: How about this compound: O=C(CN(CCc1ccccc1)C(=O)CN1C(=O)COc2ccccc21)NCc1ccco1
Return: -0.468 (inactive)

Enquiry: How about this compound: CC1CN(c2ccc(Oc3ccccc3)cc2)c2nc3c(c(=O)n(CC(N)=O)c(=O)n3C)n2C1 (centres undefined)
Return: -0.546 (inactive)

Enquiry: How about this compound: O=C1C2ON(c3ccc(Cl)cc3)C(c3ccco3)C2C(=O)N1c1ccccc1 (centres undefined)
Return: -0.511 (inactive)

Enquiry: How about this compound: Cc1c(C(=O)OC2CCC(C)CC2)[nH]c2c1C(=O)CCC2 (centres undefined)
Return: -0.56 (inactive)

Enquiry: How about this compound: Cc1ccc(-c2nnc(SCC(=O)N3c4ccccc4NC(=O)C3(C)C)n2N)cc1
Return: -0.361 (inactive)

Enquiry: How about this compound: CN(C)c1nc(N)nc(-c2nc3ccccc3s2)n1
Return: -0.489 (inactive)

Enquiry: How about this compound: COc1ccc(Nc2ncnc3c2cnn3-c2ccccc2)cc1OC
Return: -0.366 (inactive)

Enquiry: How about this compound: CC(C)c1ccc(-c2nc(N3CCOCC3)[nH]c(=O)c2C#N)cc1
Return: -0.405 (inactive)

Enquiry: How about this compound: COc1ccc(NC(=O)CN2CCCCC2)cc1
Return: -0.414 (inactive)

Enquiry: How about this compound: CCOc1cccc(C(=O)N(Cc2ccco2)C2CCS(=O)(=O)C2)c1 (centres undefined)
Return: -0.342 (inactive)

Enquiry: How about this compound: CCc1nnc(NC(=O)C2CC(=O)N(Cc3ccco3)C2)s1 (centres undefined)
Return: -0.507 (inactive)

Enquiry: How about this compound: COc1ccc(CC(=O)Nc2c3c(nn2-c2cccc(Cl)c2)CS(=O)C3)cc1 (centres undefined)
Return: -0.492 (inactive)

Enquiry: How about this compound: CCOC(=O)C1=C(C)Nc2nnnn2C1c1ccc(OC)c(Br)c1 (centres undefined)
Return: -0.574 (inactive)

* * *

assay: reduction of polyQ htt aggregates in cells – imaging, exon1htt(103Q)mCFP cells, high-content imaging, primary screen (AID 483); conditions: exon1htt(103Q)mCFP cell line, aggregate imaging, at 2 µM; measured here: cell count, toxicity;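 also: compound exposure lasted 3 days before fixation; percent of the per-plate median nuclei count of sample wells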
PROPERTY_LABEL: nuclei count

Look over these answered cases.
Cc1ccc(S(=O)(=O)Nc2nc3ccccc3nc2NCc2ccco2)cc1	103%
Cc1ccc(N2C(=O)c3oc4ccccc4c(=O)c3C2c2cccc(O)c2)nc1 (configuration not stated)	64.5%
CC1(C)C(c2ccccc2)=NC(c2ccccc2)N1O (configuration not stated)	107%
COc1ccc(N2C(=O)CC(N3CCN(c4ccccc4F)CC3)C2=O)cc1 (configuration not stated)	108%
O=C(OCC(=O)N1CCC(Cc2ccccc2)CC1)c1ccc[nH]c1=O	107%
Cc1nn(C)c(C)c1CNC(=O)c1cc2n(n1)C(C(F)(F)F)CC(c1cccs1)N2 (configuration not stated)	95.1%
Cn1c(CNc2nc(-c3ccccc3)cs2)nnc1SCC(=O)N1CCc2ccccc21	91.5%
COCC(=O)N(C)c1nnc(-c2ccccn2)s1	84.4%
COc1ccc(NC(=O)c2cc(C3CC3)on2)c(OC)c1	116%
COc1ccccc1NC(=O)c1cc2n(n1)C(C(F)(F)F)CC(c1ccc3c(c1)OCO3)N2 (configuration not stated)	109%

Enquiry: nuclei count for O=C(NCC(c1cccnc1)N1CCN(c2ccc(F)cc2)CC1)c1ccc(F)cc1 (configuration not stated) ?
Return: 84%

Enquiry: How about this compound: O=C(c1ccco1)N1CCN(/C(=N/S(=O)(=O)c2cccs2)c2ccccc2Cl)CC1
Return: 103%

Enquiry: How about this compound: CCCOC(=O)c1[nH]c2c(c1C)C(=O)CC(c1cc(OC)c(OC)c(OC)c1)C2 (configuration not stated)
Return: 114%

* * *

target: Voltage-gated potassium channel subunit beta-2 (Rattus norvegicus) (UniProt P62483); experiment: inhibitors of rat Kvbeta2 reductase activity – biochemical, NADPH fluorescence, primary screen (AID 622); conditions: recombinant KvBeta, 4-cyanobenzaldehyde reduction, at 10 µM, stronger effect = higher value;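 also: slope of raw intensity against log time taken from 70 to 1610 s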
Sequence (P62483 whole entry, looked up): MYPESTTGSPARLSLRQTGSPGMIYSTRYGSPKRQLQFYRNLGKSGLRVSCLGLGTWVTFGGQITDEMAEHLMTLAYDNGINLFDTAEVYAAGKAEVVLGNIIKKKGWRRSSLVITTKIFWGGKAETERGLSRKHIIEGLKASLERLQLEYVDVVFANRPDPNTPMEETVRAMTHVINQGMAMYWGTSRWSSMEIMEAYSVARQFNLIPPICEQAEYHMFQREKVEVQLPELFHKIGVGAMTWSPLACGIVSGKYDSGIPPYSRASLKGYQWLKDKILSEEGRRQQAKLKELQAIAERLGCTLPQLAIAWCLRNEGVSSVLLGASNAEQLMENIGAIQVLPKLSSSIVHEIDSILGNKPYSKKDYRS
PROPERTY_LABEL: fluorescence slope
Form: value (number only, do not type unit).

Enquiry: // fetch Voltage-gated potassium channel subunit beta-2 (Rattus norvegicus) (UniProt P62483) fluorescence slope for CC(=O)Nc1ccc(S(=O)(=O)NCc2csc(-c3cccnc3)n2)cc1
Return: -0.511

Enquiry: How about this compound: CCCCOC(=O)CN1C(=O)c2ccc(C(=O)OCCCC)cc2C1=O
Return: -0.486

Enquiry: How about this compound: O=C(CCC1COc2ccccc2O1)NCC1COc2ccccc2O1 (stereo unspecified)
Return: -0.499

Enquiry: How about this compound: Oc1ccc(N2CCN(C(c3ccncc3)c3nnnn3C3CCCC3)CC2)cc1 (stereo unspecified)
Return: -0.502

Enquiry: How about this compound: CCCC(CCC)C(=O)NCCN1CCOCC1
Return: -0.494

* * *

Overview of reported inhibition across a group of compounds:
test: TLR3 IRF3 reporter activation blockers – cell-based, poly I:C stimulus, luciferase, 10K MLSCN set, primary screen (AID 602277); details: HEK293-TLR3 RL24 IRF3 luciferase reporter, at 10 µM, stronger effect = higher value
Respond with the bare value in %.

Look over these answered cases.
Cc1ccc(C2c3sc(=O)[nH]c3SC3C(=O)NC(=O)C32)cc1 (stereo unspecified)	58.9
C=CCOc1ccc(/C(CC)=N/O)c(OC)c1	0.412
COc1ccc(N2CCN(C(=O)C(C)(C)Oc3ccc(Cl)cc3)CC2)cc1	28.4
O=C(Oc1cccc2cccnc12)c1cccc(-n2cnnn2)c1	24.5
C/C=C/Cn1c(SCCCc2ccccc2)nc2c1c(=O)[nH]c(=O)n2C	5.27

Consider now this further compound.
Enquiry: inhibition for Cc1cccnc1NC(=O)CCCN1C(=O)c2ccccc2C1=O ?
Return: 10.4

* * *

biological target: Voltage-gated potassium channel subunit beta-2 (Rattus norvegicus); experiment: enhancers of rat Kvbeta2 NADPH turnover – biochemical, NADPH fluorescence, primary screen (AID 623); settings: Recombinant KvBeta, NADPH fluorescence decrease slope, 10 min; at 10 µM; stronger effect = lower value;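 also: fluorescence intensity change per second fitted from 20 to 320 s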
PROPERTY_LABEL: NADPH fluorescence slope
Form: value (number only, do not type unit).

O=C(CC(SCCO)c1ccc2c(c1)OCO2)c1ccco1 (centres undefined)	-5.3e-06

Enquiry: NADPH fluorescence slope for c1cc(CNc2ccc3c(c2)OCO3)ccn1 ?
Return: -1.4e-05

Enquiry: How about this compound: Cc1noc(C)c1CSc1nc2ccccc2s1
Return: 2.9e-05

Enquiry: How about this compound: O=C(CN1CCN(Cc2ccccc2F)C1=O)NCc1cccnc1
Return: 2.9e-05

Enquiry: How about this compound: COc1ccc(-c2ccc(-c3noc(-c4cccs4)n3)c(OC)n2)cc1
Return: -6.5e-07

Enquiry: How about this compound: CCOC(=O)Cc1nnc(NC(=O)c2ccccc2OCC)s1
Return: -0.000111

Enquiry: How about this compound: CC1CCN(C(=O)CSc2nc3ccccc3[nH]2)CC1
Return: -9.6e-06

Enquiry: How about this compound: O=S1(=O)CCC(NS(=O)(=O)/C=C/c2ccccc2)C1 (centres undefined)
Return: -0.000106

Enquiry: How about this compound: O=C(NC1CCCC1)C1CC1c1ccccc1 (centres undefined)
Return: -1.4e-05

Enquiry: How about this compound: COc1cccc(N2CCN(C(=O)C3C4C=CC5(CN(Cc6ccccc6Cl)C(=O)C35)O4)CC2)c1 (centres undefined)
Return: -3.2e-05

Enquiry: How about this compound: COC(=O)c1cccc(NC(=O)Cc2coc3cc(OC)ccc23)c1
Return: -6.1e-06

Enquiry: How about this compound: COc1ccc(-n2c(SCC(=O)N3CCCCC3C)nnc2-c2cccnc2)cc1 (centres undefined)
Return: -5.2e-05

Enquiry: How about this compound: CC(=O)NC(Cc1ccc(C)cc1)C(=O)NC1CCN(C(=O)c2cnccn2)CC1 (centres undefined)
Return: -1.5e-05

Enquiry: How about this compound: CN1CCN(C(c2cccc(C(F)(F)F)c2)c2nnnn2C(C)(C)C)CC1 (centres undefined)
Return: -2.7e-05

Enquiry: How about this compound: COc1cc2c(cc1NC(=O)CN1CCN(S(=O)(=O)c3ccc(F)cc3)CC1)oc1ccccc12
Return: 1.3e-05

Enquiry: How about this compound: COc1cc(OC)nc(NC(=O)CSc2nc3ccccc3o2)n1
Return: -2.6e-05

Enquiry: How about this compound: Cc1cc(C(=O)NCCCN2CCOCC2)n(-c2ccccc2)n1
Return: -2.1e-05

Enquiry: How about this compound: CN(C)c1oc(-c2ccccc2Cl)nc1C#N
Return: -0.000102

Values were extracted from PubChem BioAssay.
